test system: HCC-827; experiment: relative viability (nuclei count vs DMSO), 5 days (fraction); higher = more cells survive; settings: first compound 1.265 µM
Quantity kind: relative viability
One number for each entry.

The reported relative viability of the molecule O=C(O)c1ccc(-c2c[nH]c3ncc(-c4ccccc4)cc23)cc1C1CCCC1 + CS(=O)(=O)N1CCN(Cc2cc3nc(-c4cccc5[nH]ncc45)nc(N4CCOCC4)c3s2)CC1 [Pictilisib] (partner 1 µM) was 0.859

The reported relative viability of the molecule O=C(O)c1ccc(-c2c[nH]c3ncc(-c4ccccc4)cc23)cc1C1CCCC1 + N=C(N)NC(=N)NCCc1ccccc1 [Phenformin] (partner 250 µM) was 0.386

Then there is this molecule:
The reported relative viability of the molecule O=C(O)c1ccc(-c2c[nH]c3ncc(-c4ccccc4)cc23)cc1C1CCCC1 + Cc1cc(Nc2cc(N3CCN(C)CC3)nc(Sc3ccc(NC(=O)C4CC4)cc3)n2)n[nH]1 [Tozasertib] (partner 0.1 µM) was 0.328
